These data points were gathered from ChEMBL document CHEMBL5223104.

- tested on: Sodium channel protein type 1 subunit alpha (Homo sapiens)
- procedure text: Modulator activity at human Nav1.1 expressed in human Flp-In-T-REx-293 cells assessed as change in half activation potential at 100 uM measured at holding potential of -120 mV by whole cell patch clamp electrophysiology assay
- Format: cell-based
measurement type: delta(V1/2) (mV)
Dear colleague, please return just the value in mV, with no unit written.

[
  {
    "structure smiles string": "CN(C)/N=N/c1c(C(N)=O)nnn1Cc1ccc(F)cc1",
    "delta(V1/2) / mV": -0.99
  }
]

[ask] GET /values?readout=delta(V1/2)&item= Cc1ccc(Cn2nnc(C(N)=O)c2/N=N/N(C)C)cc1
[reply] -1.05

[ask] GET /values?readout=delta(V1/2)&item= NC(=O)c1cn(Cc2c(F)cccc2F)nn1
[reply] -7.39

[ask] GET /values?readout=delta(V1/2)&item= CN(C)/N=N/c1c(C(N)=O)nnn1Cc1ccccc1F
[reply] -3.11

----------
- tested on: Sodium channel protein type 1 subunit alpha (Homo sapiens) (UniProt P35498)
- procedure text: Modulator activity at human Nav1.1 expressed in human Flp-In-T-REx-293 cells assessed as half activation potential at 100 uM measured at holding potential of -120 mV by whole cell patch clamp electrophysiology assay
- Assay type: cell-based
measurement type: V1/2 (mV)
Dear colleague, please return just the value in mV, with no unit written.

Solved entries:
[
  {
    "structure smiles string": "CN(C)/N=N/c1c(C(N)=O)nnn1Cc1ccccc1Cl",
    "unit string": "mV",
    "V1/2": -42.7
  },
  {
    "structure smiles string": "CN(C)/N=N/c1c(C(N)=O)nnn1Cc1ccccc1",
    "unit string": "mV",
    "V1/2": -43.2
  },
  {
    "structure smiles string": "Cc1ccc(Cn2nnc(C(N)=O)c2/N=N/N(C)C)cc1",
    "unit string": "mV",
    "V1/2": -45.4
  }
]

We now examine a further compound.
[ask] GET /values?readout=V1/2&item= CN(C)/N=N/c1c(C(N)=O)nnn1Cc1ccc(F)cc1
[reply] -39

----------
- procedure text: Apparent clearance during terminal phase in Sprague-Dawley rat at 50 mg/kg, po
- Format: ADME, organism-based
- particulars: in vivo
measurement type: CLz/F (mL/min/kg)
Dear colleague, please return just the value in mL/min/kg, with no unit written.

[ask] GET /values?readout=CLz/F&item= CN(C)/N=N/c1c(C(N)=O)nnn1Cc1c(F)cccc1F
[reply] 169

----------
- tested on: Sodium channel protein type 1 subunit alpha (Homo sapiens) (UniProt P35498)
- procedure text: Modulator activity at human Nav1.1 expressed in human Flp-In-T-REx-293 cells assessed as change in half inactivation potential at 100 uM by whole cell patch clamp electrophysiology assay
- Assay type: cell-based
Here, each record is paired with measured delta(V1/2) data.
Dear colleague, please return just the value in mV, with no unit written.

[
  {
    "structure smiles string": "CN(C)/N=N/c1c(C(=O)Nc2ccccc2)nnn1Cc1c(F)cccc1F",
    "unit string": "mV",
    "delta(V1/2)": -5.55
  },
  {
    "structure smiles string": "CN(C)/N=N/c1c(C(N)=O)nnn1Cc1c(F)cccc1F",
    "unit string": "mV",
    "delta(V1/2)": -10.1
  },
  {
    "structure smiles string": "NC(=O)c1cn(Cc2c(F)cccc2F)nn1",
    "unit string": "mV",
    "delta(V1/2)": -7.01
  },
  {
    "structure smiles string": "Cc1ccc(Cn2nnc(C(N)=O)c2/N=N/N(C)C)cc1",
    "unit string": "mV",
    "delta(V1/2)": -3.93
  },
  {
    "structure smiles string": "CN(C)/N=N/c1c(C(N)=O)nnn1CCc1c(F)cccc1F",
    "unit string": "mV",
    "delta(V1/2)": -0.74
  }
]

[ask] GET /values?readout=delta(V1/2)&item= CN(C)/N=N/c1c(C(N)=O)nnn1Cc1ccccc1F
[reply] -4.73

----------
- procedure text: AUClast in Sprague-Dawley rat plasma at 50 mg/kg, po
- Assay type: ADME, organism-based
- Parameters: dose 50 mg/kg, route po
- particulars: in vivo
measurement type: AUClast (ng·h/mL)
Dear colleague, please return just the value in ng·h/mL, with no unit written.

[ask] GET /values?readout=AUClast&item= CN(C)/N=N/c1c(C(N)=O)nnn1Cc1c(F)cccc1F
[reply] 5460

----------
- procedure text: Apparent volume of distribution during terminal phase in Sprague-Dawley rat at 50 mg/kg, po
- Assay type: ADME, organism-based
- particulars: in vivo, read-out: Vz/F
measurement type: Vd/F (L/kg)
Dear colleague, please return just the value in L/kg, with no unit written.

[ask] GET /values?readout=Vd/F&item= CN(C)/N=N/c1c(C(N)=O)nnn1Cc1c(F)cccc1F
[reply] 13.6

----------
- tested on: Sodium channel protein type 1 subunit alpha (Homo sapiens) (UniProt P35498)
- procedure text: Modulator activity at human Nav1.1 expressed in human Flp-In-T-REx-293 cells assessed as change in half activation potential at 100 uM measured at holding potential of -120 mV by whole cell patch clamp electrophysiology assay
- Assay type: cell-based
Here, each record is paired with measured delta(V1/2) data.
# output: numeric value plus its unit

Solved entries:
[
  {
    "structure smiles string": "CN(C)/N=N/c1c(C(N)=O)nnn1Cc1ccccc1",
    "delta(V1/2)": "-1.5 mV"
  },
  {
    "structure smiles string": "CN(C)/N=N/c1c(C(=O)NCc2ccccc2)nnn1Cc1c(F)cccc1F",
    "delta(V1/2)": "1.95 mV"
  },
  {
    "structure smiles string": "CN(C)/N=N/c1c(C(N)=O)nnn1Cc1ccccc1Cl",
    "delta(V1/2)": "-1.7 mV"
  }
]

[ask] GET /values?readout=delta(V1/2)&item= CNC(=O)c1nnn(Cc2c(F)cccc2F)c1/N=N/N(C)C
[reply] -4.56 mV

----------
- procedure text: Oral bioavailability in Sprague-Dawley rat at 50 mg/kg
- Assay type: ADME, organism-based
- particulars: in vivo
measurement type: bioavailability (%)
Dear colleague, please return just the value in %, with no unit written.

[ask] GET /values?readout=bioavailability&item= CN(C)/N=N/c1c(C(N)=O)nnn1Cc1c(F)cccc1F
[reply] 34.3

----------
- tested on: Sodium channel protein type 1 subunit alpha (Homo sapiens) (UniProt P35498)
- procedure text: Modulator activity at human Nav1.1 expressed in human Flp-In-T-REx-293 cells assessed as change in half inactivation potential at 100 uM by whole cell patch clamp electrophysiology assay
- Type: cell-based
Here, each record is paired with measured delta(V1/2) data.
# output: numeric value plus its unit

Solved entries:
[
  {
    "structure smiles string": "COC(=O)CCCNC(=O)c1nnn(Cc2c(F)cccc2F)c1/N=N/N(C)C",
    "delta(V1/2)": "-4.72 mV"
  },
  {
    "structure smiles string": "CN(C)/N=N/c1c(C(N)=O)nnn1Cc1ccc(F)cc1F",
    "delta(V1/2)": "-4.36 mV"
  },
  {
    "structure smiles string": "CN(C)/N=N/c1c(C(=O)NCc2ccccc2)nnn1Cc1c(F)cccc1F",
    "delta(V1/2)": "-11.3 mV"
  }
]

[ask] Sodium channel protein type 1 subunit alpha (Homo sapiens) (UniProt P35498) / delta(V1/2) / CN(C)/N=N/c1c(C(N)=O)nnn1Cc1ccccc1Cl : value?
[reply] -3.13 mV

[ask] Sodium channel protein type 1 subunit alpha (Homo sapiens) (UniProt P35498) / delta(V1/2) / CN(C)/N=N/c1c(C(=O)NC2CC2)nnn1Cc1c(F)cccc1F : value?
[reply] -3.87 mV

[ask] Sodium channel protein type 1 subunit alpha (Homo sapiens) (UniProt P35498) / delta(V1/2) / CN(C)/N=N/c1c(C(N)=O)nnn1-c1c(F)cccc1F : value?
[reply] -4.24 mV

[ask] Sodium channel protein type 1 subunit alpha (Homo sapiens) (UniProt P35498) / delta(V1/2) / CN(C)/N=N/c1c(C(N)=O)nnn1Cc1ccccc1 : value?
[reply] -3.79 mV

[ask] Sodium channel protein type 1 subunit alpha (Homo sapiens) (UniProt P35498) / delta(V1/2) / CNC(=O)c1nnn(Cc2c(F)cccc2F)c1/N=N/N(C)C : value?
[reply] -6.54 mV

[ask] Sodium channel protein type 1 subunit alpha (Homo sapiens) (UniProt P35498) / delta(V1/2) / CN(C)/N=N/c1c(C(N)=O)nnn1Cc1ccc(F)cc1 : value?
[reply] -4 mV

----------
- procedure text: AUClast in Sprague-Dawley rat plasma at 10 mg/kg, iv
- Format: ADME, organism-based
- Design: dose 10 mg/kg, route iv
- particulars: in vivo
measurement type: AUClast (ng·h/mL)
Dear colleague, please return just the value in ng·h/mL, with no unit written.

[ask] GET /values?readout=AUClast&item= CN(C)/N=N/c1c(C(N)=O)nnn1Cc1c(F)cccc1F
[reply] 3190
